# Test system: CAKI-1 renal
# method_notes: NCI tumour cell line growth inhibition, 48 h
Measured TGI values are reported for all entries that follow.

>>> observed_value("Nc1nccc(-c2c(-c3ccc(F)cc3)ncn2CCCN2CCOCC2)n1")
"> 25 µM"
>>> observed_value("N#CCCN(c1ccc(/C=C2\\N=C(c3ccc(Cl)cc3)OC2=O)cc1)S(=O)(=O)c1ccccc1")
"> 100 µM"
>>> observed_value("Oc1ccc2ccccc2c1N=Nc1ccc(F)cc1")
"> 100 µM"

Below: the item to evaluate.
For reference, reported TGI for C[C@]12CC[C@@H]3c4ccc(O)cc4CC[C@H]3[C@@H]1CC[C@@H]2NS(=O)(=O)c1ccc(C(F)(F)F)cc1 stands at 8.06 µM

* * *

TGI overview
# System: SR leukemia
# method_notes: NCI tumour cell line growth inhibition, 48 h

Worked cases, TGI given:
>>> observed_value("O=C(CCc1ccc(O)cc1)NCCc1ccc(O)cc1")
"> 100 µM"
>>> observed_value("O=C(CC(=O)n1nc(-c2ccccc2)c(N=Nc2ccc(Cl)cc2)c1-c1ccccc1)Nc1cccc(Cl)c1")
"> 100 µM"
>>> observed_value("NCC(=O)NC(CCCC(NC(=O)CN)P(=O)(O)O)P(=O)(O)O (stereo not given)")
"> 100 µM"
>>> observed_value("Cc1cc(NS(=O)(=O)c2ccc(NC(=O)c3cccc4c(=O)c5ccccc5[nH]c34)cc2)no1")
"80.8 µM"

The compound Nc1ccc(C(=O)Nn2c(-c3ccccc3)nc3ccccc3c2=O)cc1 , tested on SR leukemia, showed TGI of > 100 µM

Bench note, SR leukemia: entry O=C1NNC(=O)C2C3c4ccccc4C(c4ccccc43)C12 (stereo not given) , its TGI = > 100 µM

The measured TGI that Cn1cc(-c2csc(-c3cccc(F)c3)n2)c2cccnc21 showed for SR leukemia is > 100 µM

The value of TGI recorded for CCOC(=O)NC(Nc1ccc(S(=O)(=O)Nc2ncccn2)cc1)(C(=O)OCC)C(F)(F)F (stereo not given) when tested on SR leukemia reads > 100 µM

Lab entry: SR leukemia assay, compound CCOC(=O)[C@H]1Nc2ccc(C)cc2C2c3ccccc3CC21 (stereo not given in full) , TGI = > 100 µM

Form field, TGI with SR leukemia, item CCC1c2[nH]c3ccccc3c2C[C@H]2C(=O)NC(CCC(=O)OC(C)(C)C)C(=O)N12 (stereo not given in full) : > 100 µM

Field TGI (system: SR leukemia) for entry O=C(C[C@@H](C(=O)NCc1cccc(C(F)(F)F)c1)N1C(=O)[C@@H](N2C(=O)OC[C@@H]2c2ccccc2)[C@H]1/C=C/c1ccccc1)NC1CCN(Cc2ccccc2)CC1 = 5.43 µM

Reported TGI (SR leukemia) for entry Nc1nccc(-c2c(-c3ccc(F)cc3)ncn2CCCN2CCOCC2)n1 is > 25 µM

Readout TGI for CN(C)CC(CN(C)C)c1ccccn1 , test system SR leukemia, was > 100 µM

TGI on SR leukemia for COc1ccc(-c2c(C#N)c(NC(=S)NC(=O)c3ccccc3)nc3c2CCCC3)cc1OC is > 100 µM

Entry O=P(c1ccccc1)(c1ccccc1)C(NCc1ccccc1)c1ccc(F)cc1 (stereo not given) , SR leukemia data, TGI value: 49.5 µM

* * *

# System: HOP-92 NSCLC
# method_notes: NCI tumour cell line growth inhibition, 48 h; in the data active = GI50 below about 0.43 µM; inactive = the rest
Answer with one of the outcomes active, inactive

Use the examples below as a reference point.
>>> answer_label("COc1cc(C(=O)O[C@H](C(N)=O)[C@]2(C)CO2)c2ccccc2c1")
"inactive"
>>> answer_label("COc1ccc(/C(=N/Nc2ccc([N+](=O)[O-])cc2)Sc2cc(Cl)c(C)cc2S(N)(=O)=O)cc1")
"inactive"
>>> answer_label("COc1ccc(S(=O)(=O)N(Cc2ccc3c(n2)C=CC(C)(C)O3)C2CCC2)cc1OC")
"active"
>>> answer_label("CCOC(=O)c1c(C)n(Cc2ccc(OC)cc2)c2c1cc(O)c1[nH]c3c(c12)CCCC3")
"inactive"
>>> answer_label("COC(=O)[C@]12CCC(C)(C)C[C@H]1C1=CC[C@@H]3[C@@]4(C)C/C(=C/c5cccnc5)C(=O)C(C)(C)[C@@H]4CC[C@@]3(C)[C@]1(C)CC2")
"inactive"

*Q* How did this test come out for NC(N)=NC(N)=Nc1cc2ccccc2c2ccccc12 ?
*A* inactive

*Q* Outcome? CN1C(NC(=O)c2ccc(Cl)nc2)=NS(=O)(=O)c2cc(Cl)ccc21
*A* inactive

*Q* Test call for this molecule, please: COc1cc2c(/C=C3/C(=O)Nc4cccc(Cl)c43)c(Cl)n(Cc3ccccc3)c2cc1C
*A* inactive

*Q* Outcome? CCCCNC(=O)NS(=O)(=O)c1ccc(N2N=C(c3ccc(C)cc3C)CC2c2ccc(N(C)C)cc2)cc1 (centres undefined)
*A* inactive

* * *

# Test system: HT29 colon
# method_notes: NCI tumour cell line growth inhibition, 48 h
measurement_kind: TGI

>>> observed_value("Nc1ccc(C(=O)Nn2c(-c3ccccc3)nc3ccccc3c2=O)cc1")
"> 100 µM"
>>> observed_value("Cc1cc(C2CCCCC2)n(O)c(=O)c1")
"> 100 µM"

Please find the next compound below.
Sure, the documented TGI for COC(=O)C(=O)C(C(=O)C=C(C)C)C(=O)C(=O)Nc1ccc(Cl)cc1C (stereo not drawn) is > 100 µM

* * *

# Tested on: RXF 393 renal
# method_notes: NCI tumour cell line growth inhibition, 48 h
TGI for assorted compounds

Below, 2 compounds whose answers are already recorded.
>>> observed_value("N#Cc1nc(COCCOCc2ccccc2)oc1N")
"> 100 µM"
>>> observed_value("CC(=O)c1cccc2c1CC1(C2)Cc2ccc3c(c2C1=O)CCC3 (stereo not drawn)")
"> 100 µM"

// next entry
Entry under test: CC(=O)NC(CCCN)C(=O)NCc1ccccc1 (stereo not drawn) . Its TGI was > 100 µM

* * *

The reader will find reported TGI values listed item by item below.
# System: KM20L2 colon
# method_notes: NCI tumour cell line growth inhibition, 48 h

Let me check: Nc1c(-c2ccc(Br)cc2)[n+]([O-])c2ccccc2[n+]1[O-] , system KM20L2 colon, measured TGI is > 100 µM

Measured on KM20L2 colon, CC(C)=[CH][Sb]([Br])([CH]=C(C)C)([CH]=C(C)C)[CH]=C(C)C has a documented TGI of > 100 µM

The compound CC(C)CCN=c1cc2n(-c3ccc(Cl)cc3)c3ccccc3nc-2cc1Nc1ccc(Cl)cc1 on KM20L2 colon: TGI was 19.7 µM

* * *

# Tested on: SR leukemia
# method_notes: NCI tumour cell line growth inhibition, 48 h
measurement_kind: GI50

# count of solved cases: 3
>>> observed_value("O=C(C[C@@H](C(=O)NCc1cccc(C(F)(F)F)c1)N1C(=O)[C@@H](N2C(=O)OC[C@@H]2c2ccccc2)[C@H]1/C=C/c1ccccc1)NC1CCN(Cc2ccccc2)CC1")
"1890 nM"
>>> observed_value("COc1cc([C@@H]2c3cc4c(cc3C(O[C@@H]3O[C@@H]5CO[C@@H](c6cccs6)OC5[C@H](O)[C@H]3O)C3COC(=O)[C@@H]32)OCO4)cc(OC)c1O (stereo not given in full)")
"< 5 nM"
>>> observed_value("COc1cc2c3c(n(CCCBr)c(=O)c2cc1OC)-c1ccc(NC(C)=O)cc1C3=O")
"574 nM"

Param item: Cn1cc(C2=C(c3cn(CCCN=C(N)N)c4ccccc34)C(=O)NC2=O)c2ccccc21 ; param system: SR leukemia; output GI50: 7220 nM

So the reported GI50 for CC(=O)[O][Hg][c]1c(C)c(C)c(C)c(C)c1C , on SR leukemia, turned out to be 127 nM

* * *

# System: IGROV1 ovarian
# method_notes: NCI tumour cell line growth inhibition, 48 h
measurement_kind: TGI (µM)
Quick reminder: number only, in µM, skip the unit.

>>> observed_value("COc1cccc(C2c3cc4c(cc3OC(N3CCCC3)C2C)OCO4)c1 (stereo not given)")
38.7

Would you kindly look at the next entry?
For record CN1CCC(OC(=O)Oc2ccccc2)(c2ccccc2)CC1 the listed TGI is 64.5

* * *

Recorded TGI for the following compounds
# Test system: SK-MEL-5 melanoma
# method_notes: NCI tumour cell line growth inhibition, 48 h
Your answer is read as µM, so omit the unit and give the number.

Worked set:
>>> observed_value("CCCNC(=S)N/N=C(\\C)c1ccccn1")
2.55
>>> observed_value("CCC1(O)C(=O)OCc2c1cc1n(c2=O)Cc2cc3c(N)cccc3nc2-1 (stereo not drawn)")
0.192
>>> observed_value("O=C1NC(Nc2cccc(Cl)c2)=N/C1=C\\c1ccc(Cl)c(Cl)c1")
19.1
>>> observed_value("COc1ccc(-c2nc(-c3nc4ccc(C)cc4[nH]3)c3ccccn23)cc1")
2.72

Form: compound = CCOc1cc(NC(C)=O)ccc1C(=O)NN1C(=O)C(Oc2ccccc2)C1c1ccc(O)c(OC)c1 (stereo not drawn) ; TGI = 49.5

Reported TGI of CC(=O)c1cccc2c1CC1(C2)Cc2ccc3c(c2C1=O)CCC3 (stereo not drawn) : 33.7
